# Assay System: AnkG R1-6 (Rattus norvegicus, UniProt O70511, DEL222-823)
# Construct: thioredoxin-His6 (N); made in house; host or cells: Escherichia coli BL21 (DE3)
# Sequence (O70511 with tags, fused parts or gaps DEL222-823 limits assumed): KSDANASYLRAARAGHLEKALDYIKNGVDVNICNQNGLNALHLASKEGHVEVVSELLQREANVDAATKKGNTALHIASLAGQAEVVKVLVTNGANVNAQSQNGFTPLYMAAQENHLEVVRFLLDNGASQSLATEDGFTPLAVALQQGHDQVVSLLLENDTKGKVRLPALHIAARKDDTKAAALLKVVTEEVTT
# Method Notes: ITC binding to AnkG R1-6 truncation
# Measurement Setup: 25°C, pH 7.5, one-site binding model
Where no end group is shown, it is not given here.
Quantity Name: pKd
For clarity, pKd is expressed as the negative log10 of concentration in mol/L.

**Q:** # lookup: pKd of TVTVPIAVGESDFENLNTEEFSSESDM [ABD-C (1103 - 1129)]
**A:** 5.64
